# Tested on: Pyricularia oryzae
# Format: in vivo
# MEASUREMENT SETUP: individual active compound, 4 ppm in the spray liquor; protective spray, inoculated next day, rated after 6 days
TEST READOUT: Efficacy in % of the untreated control (%)
Form entry: value (%) — number only.

CC(Nc1c(-c2c(F)cc(F)cc2F)c(Cl)nc2ncnn12)C(F)(F)F (stereo not shown) | 33

Requested read-out: Efficacy in % of the untreated control. Entry: CC1CCN(c2c(-c3c(F)cccc3Cl)c(Cl)nc3ncnn23)CC1
11

Requested read-out: Efficacy in % of the untreated control. Entry: CC1CCN(c2c(-c3c(F)cc(F)cc3F)c(Cl)nc3ncnn23)CC1
33

Requested read-out: Efficacy in % of the untreated control. Entry: CCCC1COC(Cn2cncn2)(c2ccc(Cl)cc2Cl)O1 (stereo not shown)
0

src = patent US20070082915A1
